The values you see were collected from patent US10472401B2.

# Experimental target: HLA-A*02:01 (Homo sapiens, UniProt P04439, D140Y/D185E/D98H/E176V/E277Q/G131W/G231S/I119V/I121R/I166T/I218V/L300P/L318F/N151K/N90K/P208A/P217A/Q86G/Q94H/R138H/R169H/T345S)
# Measurement description: MHC binding assay (UV-ligand exchange, ELISA of stabilized MHC complexes)
# Run conditions: MHC class I binding score; binding to HLA-A*02:01 ranged by peptide exchange yield (UV-ligand exchange, ELISA)
Recorded endpoint: Peptide exchange

Please review the following examples before continuing.
Substance | Peptide exchange
277 (LLPPLESLATV; listed as Homo sapiens) [compound 277] | ″++″ (≥20% = ++)
14 (AAYGGLNEKSFV; listed as Homo sapiens) [compound 14] | ″+++″ (≥50% = +++)
497 (GLLEKLTAI; listed as Homo sapiens) [compound 497] | ″+++″ (≥50% = +++)
436 (HLAEVSAEV; listed as Homo sapiens) [compound 436] | ″+++″ (≥50% = +++)
493 (GLLGEKTQDLIGV; listed as Homo sapiens) [compound 493] | ″+++″ (≥50% = +++)

q: For the substance 241 (SLVEVNPAYSV; listed as Homo sapiens) [compound 241] , what Peptide exchange is on record?
a: ″+++″ (≥50% = +++)

q: Request: 222 (NLIENVQRL; listed as Homo sapiens) [compound 222]
a: ″++″ (≥20% = ++)

q: Try this substance next: 612 (YLYNEGLSV; listed as Homo sapiens) [compound 612]
a: ″+++″ (≥50% = +++)

q: Would you kindly repeat that for 507 (KLIDDQDISISL; listed as Homo sapiens) [compound 507] ?
a: ″+++″ (≥50% = +++)

q: And then 212 (ALWDQDNLSV; listed as Homo sapiens) [compound 212] , what is it?
a: ″++″ (≥20% = ++)

q: Now the same for 601 (SAFPFPVTV; listed as Homo sapiens) [compound 601]
a: ″+++″ (≥50% = +++)

q: Thanks! And 186 (TLFFQQNAL; listed as Homo sapiens) [compound 186] ?
a: ″++″ (≥20% = ++)

q: Param item: 227 (ALMNTLLYL; listed as Homo sapiens) [compound 227]
a: ″++″ (≥20% = ++)

q: Subsequent entry: 114 (SLVGEPILQNV; listed as Homo sapiens) [compound 114]
a: ″++″ (≥20% = ++)

q: What about this substance? 117 (ILPDGEDFLAV; listed as Homo sapiens) [compound 117]
a: ″+++″ (≥50% = +++)

q: Same question, 500 (SLMEDQVLQL; listed as Homo sapiens) [compound 500] this time
a: ″+++″ (≥50% = +++)

q: Continue with 605 (KLYEAVPQL; listed as Homo sapiens) [compound 605]
a: ″+++″ (≥50% = +++)

q: What would you report for 593 (GLPRFGIEMV; listed as Homo sapiens) [compound 593] ?
a: ″+++″ (≥50% = +++)

q: Then 558 (GLLENIPRV; listed as Homo sapiens) [compound 558] ?
a: ″+++″ (≥50% = +++)
